- Test system: Jurkat cells
- ASSAY METHOD TEXT: Inhibitory action for G2 checkpoint using Jurkat cells (cell cycle by FACS)
- Assay type: cell-based, human
- CONDITION LABEL: Homo sapiens, cells arrested at G2 phase by bleomycin 40 µM reduced to 50%, 20 hours, Table 1, read-out: IC50 bleomycin
QUANTITY: IC50

[[record]]
compound = "C=C(C(=O)O)C(CCCC(=O)OC)C(=O)OC (stereo not drawn) [A]"
observed_measurement = "100 µg/mL"

[[record]]
compound = "C=C(C(=O)O)C(CCCCCC(=O)OC)C(=O)O (stereo not drawn) [B]"
observed_measurement = "100 µg/mL"

[[record]]
compound = "C=C(C(=O)O)C(CCCC(=O)OCC)C(=O)O (stereo not drawn) [F]"
observed_measurement = "100 µg/mL"

[[record]]
compound = "C=C(C(=O)O)C(CCCCCC(=O)OC)C(=O)OC (stereo not drawn) [D]"
observed_measurement = "25 µg/mL"

[[record]]
compound = "C=C(C(=O)O)C(CCCCCC(=O)OCC)C(=O)O (stereo not drawn) [C]"
observed_measurement = "100 µg/mL"

[[record]]
compound = "C=C(C(=O)O)C(CCCCCCCC(=O)OC)C(=O)O (stereo not drawn) [E]"
observed_measurement = "1.2 µg/mL"

